Test system: HaCat
Assay: Cytotoxic Profiling of Annotated Libraries Using Quantitative High-Throughput Screening (AID 1296008); further: nearly all actives have a fitted effect of over 60% in size
Settings: Five cell lines viability, CellTiter-Glo ATP luminescence, 48-72 h
Description: Cell-based phenotypic screening is a commonly used approach to discover biological pathways, novel drug targets, chemical probes and high-quality hit-to-lead molecules. […] A pintool (Kalypsys) was used to transfer 23 nL of compound solution to the 1536-well assay plates. […] Plates were left at room temperature for 10 min before imaging the ATP-coupled luminescence using a ViewLux microplate imager (PerkinElmer, Waltham, MA).
Records with an inconclusive call do not appear. The source made the active and inactive calls. The call rests on the fitted dose curve; in most records, active means well fitted inhibition curve with a large enough effect; inconclusive means small, poorly fitted or top-dose-only effect; inactive means flat fitted curve, though single readings scatter.
// classify into y = active, n = inactive

Returns: the outcome recorded for CC(C)=C[C@@H]1[C@H](CO[C@@H]2O[C@H](CO)[C@@H](O)[C@H](O)[C@H]2O)C1(C)C in this assay.
n
